Tested on: PC-3
test.name: Cytotoxicity against human PC3 cells assessed as cell viability at 50 uM after 72 hrs by crystal violet method (reference value: 95.69 +/- 7.66%)
Type: functional
condition.description: PC-3, 72 h, read-out: Activity
measured.parameter: viability at 50 µM (%)

[
  {
    "molecule": "CC1=C(CC(=O)OCCCCO[N+](=O)[O-])c2cc(F)ccc2/C1=C\\c1ccc(S(C)(=O)=O)cc1",
    "unit.of.measurement": "%",
    "value.measured": 54.7
  },
  {
    "molecule": "CC1=C(CC(=O)OCCCOc2no[n+]([O-])c2S(=O)(=O)c2ccccc2)c2cc(F)ccc2/C1=C\\c1ccc([S+](C)[O-])cc1 (stereo not drawn)",
    "unit.of.measurement": "%",
    "value.measured": 0
  },
  {
    "molecule": "CC1=C(CC(=O)OCCCCOc2no[n+]([O-])c2S(=O)(=O)c2ccccc2)c2cc(F)ccc2/C1=C\\c1ccc(S(C)(=O)=O)cc1",
    "unit.of.measurement": "%",
    "value.measured": 38.8
  },
  {
    "molecule": "CSc1ccc(/C=C2/C(C)=C(CC(=O)Oc3cccc(Oc4no[n+]([O-])c4S(=O)(=O)c4ccccc4)c3)c3cc(F)ccc32)cc1",
    "unit.of.measurement": "%",
    "value.measured": 80.7
  },
  {
    "molecule": "CC1=C(CC(=O)OCCCCCCOc2no[n+]([O-])c2S(=O)(=O)c2ccccc2)c2cc(F)ccc2/C1=C\\c1ccc([S+](C)[O-])cc1 (stereo not drawn)",
    "unit.of.measurement": "%",
    "value.measured": 0
  },
  {
    "molecule": "CSc1ccc(/C=C2/C(C)=C(CC(=O)OC/C=C\\COc3no[n+]([O-])c3S(=O)(=O)c3ccccc3)c3cc(F)ccc32)cc1",
    "unit.of.measurement": "%",
    "value.measured": 20.6
  },
  {
    "molecule": "CC1=C(CC(=O)OCCO[N+](=O)[O-])c2cc(F)ccc2/C1=C\\c1ccc([S+](C)[O-])cc1 (stereo not drawn)",
    "unit.of.measurement": "%",
    "value.measured": 35.5
  },
  {
    "molecule": "CC1=C(CC(=O)OCC#CCOc2no[n+]([O-])c2S(=O)(=O)c2ccccc2)c2cc(F)ccc2/C1=C\\c1ccc([S+](C)[O-])cc1 (stereo not drawn)",
    "unit.of.measurement": "%",
    "value.measured": 0
  },
  {
    "molecule": "CC1=C(CC(=O)/N=c2\\c[n+](-c3ccccc3)[n-]o2)c2cc(F)ccc2/C1=C\\c1ccc([S+](C)[O-])cc1 (stereo not drawn)",
    "unit.of.measurement": "%",
    "value.measured": 20.6
  },
  {
    "molecule": "CC1=C(CC(=O)Oc2cccc(Oc3no[n+]([O-])c3S(=O)(=O)c3ccccc3)c2)c2cc(F)ccc2/C1=C\\c1ccc(S(C)(=O)=O)cc1",
    "unit.of.measurement": "%",
    "value.measured": 0
  },
  {
    "molecule": "CC1=C(CC(=O)NCCNC(=O)/N=c2/c[n+](-c3ccccc3)[n-]o2)c2cc(F)ccc2/C1=C\\c1ccc(S(C)(=O)=O)cc1",
    "unit.of.measurement": "%",
    "value.measured": 55.5
  },
  {
    "molecule": "CSc1ccc(/C=C2/C(C)=C(CC(=O)OCCCOc3no[n+]([O-])c3S(=O)(=O)c3ccccc3)c3cc(F)ccc32)cc1",
    "unit.of.measurement": "%",
    "value.measured": 15.7
  },
  {
    "molecule": "CC1=C(CC(=O)OC(CO[N+](=O)[O-])CO[N+](=O)[O-])c2cc(F)ccc2/C1=C\\c1ccc([S+](C)[O-])cc1 (stereo not drawn)",
    "unit.of.measurement": "%",
    "value.measured": 30.2
  },
  {
    "molecule": "CC1=C(CC(=O)O)c2cc(F)ccc2/C1=C\\c1ccc([S+](C)[O-])cc1 (stereo not drawn)",
    "unit.of.measurement": "%",
    "value.measured": 89.3
  },
  {
    "molecule": "CSc1ccc(/C=C2/C(C)=C(CC(=O)OCCCCOc3no[n+]([O-])c3S(=O)(=O)c3ccccc3)c3cc(F)ccc32)cc1",
    "unit.of.measurement": "%",
    "value.measured": 0
  },
  {
    "molecule": "CSc1ccc(/C=C2/C(C)=C(CC(=O)OCCCCCCO[N+](=O)[O-])c3cc(F)ccc32)cc1",
    "unit.of.measurement": "%",
    "value.measured": 104
  },
  {
    "molecule": "CSc1ccc(/C=C2/C(C)=C(CC(=O)NCCNC(=O)/N=c3/c[n+](-c4ccccc4)[n-]o3)c3cc(F)ccc32)cc1",
    "unit.of.measurement": "%",
    "value.measured": 21.3
  },
  {
    "molecule": "CC1=C(CC(=O)Oc2cccc(Oc3no[n+]([O-])c3S(=O)(=O)c3ccccc3)c2)c2cc(F)ccc2/C1=C\\c1ccc([S+](C)[O-])cc1 (stereo not drawn)",
    "unit.of.measurement": "%",
    "value.measured": 66.3
  },
  {
    "molecule": "CC1=C(CC(=O)OC(CO[N+](=O)[O-])CO[N+](=O)[O-])c2cc(F)ccc2/C1=C\\c1ccc(S(C)(=O)=O)cc1",
    "unit.of.measurement": "%",
    "value.measured": 89.4
  },
  {
    "molecule": "CC1=C(CC(=O)/N=c2\\c[n+](-c3ccccc3)[n-]o2)c2cc(F)ccc2/C1=C\\c1ccc(S(C)(=O)=O)cc1",
    "unit.of.measurement": "%",
    "value.measured": 81.1
  },
  {
    "molecule": "CC1=C(CC(=O)OCCCCO)c2cc(F)ccc2/C1=C\\c1ccc([S+](C)[O-])cc1 (stereo not drawn)",
    "unit.of.measurement": "%",
    "value.measured": 96.5
  },
  {
    "molecule": "CSc1ccc(/C=C2/C(C)=C(CC(=O)OCCCCO[N+](=O)[O-])c3cc(F)ccc32)cc1",
    "unit.of.measurement": "%",
    "value.measured": 17.1
  },
  {
    "molecule": "CC1=C(CC(=O)OC/C=C\\COc2no[n+]([O-])c2S(=O)(=O)c2ccccc2)c2cc(F)ccc2/C1=C\\c1ccc([S+](C)[O-])cc1 (stereo not drawn)",
    "unit.of.measurement": "%",
    "value.measured": 0
  },
  {
    "molecule": "CC1=C(CC(=O)OCCCCO[N+](=O)[O-])c2cc(F)ccc2/C1=C\\c1ccc([S+](C)[O-])cc1 (stereo not drawn)",
    "unit.of.measurement": "%",
    "value.measured": 24.5
  },
  {
    "molecule": "CC1=C(CC(=O)OCCCOc2no[n+]([O-])c2S(=O)(=O)c2ccccc2)c2cc(F)ccc2/C1=C\\c1ccc(S(C)(=O)=O)cc1",
    "unit.of.measurement": "%",
    "value.measured": 0
  },
  {
    "molecule": "CC1=C(CC(=O)OCCCCOc2no[n+]([O-])c2S(=O)(=O)c2ccccc2)c2cc(F)ccc2/C1=C\\c1ccc([S+](C)[O-])cc1 (stereo not drawn)",
    "unit.of.measurement": "%",
    "value.measured": 16.5
  },
  {
    "molecule": "CC1=C(CC(=O)NCCOC(=O)/N=c2/c[n+](-c3ccccc3)[n-]o2)c2cc(F)ccc2/C1=C\\c1ccc([S+](C)[O-])cc1 (stereo not drawn)",
    "unit.of.measurement": "%",
    "value.measured": 41.4
  },
  {
    "molecule": "CC1=C(CC(=O)OCCCCO)c2cc(F)ccc2/C1=C\\c1ccc(S(C)(=O)=O)cc1",
    "unit.of.measurement": "%",
    "value.measured": 86.6
  }
]

====

test.name: Induction of NO release in glutathione buffer at 400 uM after 1 hr by Griess assay relative to sulindac
Assay type: physicochemical
measured.parameter: Activity (%)

[
  {
    "compound": "CC1=C(CC(=O)OC/C=C\\COc2no[n+]([O-])c2S(=O)(=O)c2ccccc2)c2cc(F)ccc2/C1=C\\c1ccc([S+](C)[O-])cc1 (stereo not given)",
    "measured.parameter": "Activity",
    "unit.of.measurement": "%",
    "sign.qualifier": "=",
    "value.measured": 12.8
  },
  {
    "compound": "CC1=C(CC(=O)OCCCCCCOc2no[n+]([O-])c2S(=O)(=O)c2ccccc2)c2cc(F)ccc2/C1=C\\c1ccc([S+](C)[O-])cc1 (stereo not given)",
    "measured.parameter": "Activity",
    "unit.of.measurement": "%",
    "sign.qualifier": "=",
    "value.measured": 13.6
  },
  {
    "compound": "CSc1ccc(/C=C2/C(C)=C(CC(=O)OCCCCOc3no[n+]([O-])c3S(=O)(=O)c3ccccc3)c3cc(F)ccc32)cc1",
    "measured.parameter": "Activity",
    "unit.of.measurement": "%",
    "sign.qualifier": "=",
    "value.measured": 8.2
  },
  {
    "compound": "CC1=C(CC(=O)O)c2cc(F)ccc2/C1=C\\c1ccc([S+](C)[O-])cc1 (stereo not given) [SULINDAC]",
    "measured.parameter": "Activity",
    "unit.of.measurement": "%",
    "sign.qualifier": "<",
    "value.measured": 1
  },
  {
    "compound": "CSc1ccc(/C=C2/C(C)=C(CC(=O)OCCOc3no[n+]([O-])c3S(=O)(=O)c3ccccc3)c3cc(F)ccc32)cc1",
    "measured.parameter": "Activity",
    "unit.of.measurement": "%",
    "sign.qualifier": "=",
    "value.measured": 10.3
  }
]

Where these numbers come from: ChEMBL document CHEMBL3102738
